Test: self-splicing fitness, log relative to wild type (ln ratio); higher = more splicing; Tetrahymena group I intron in knt gene, E. coli kanamycin selection, DiMSum; sequences stand for … in CUCUCU…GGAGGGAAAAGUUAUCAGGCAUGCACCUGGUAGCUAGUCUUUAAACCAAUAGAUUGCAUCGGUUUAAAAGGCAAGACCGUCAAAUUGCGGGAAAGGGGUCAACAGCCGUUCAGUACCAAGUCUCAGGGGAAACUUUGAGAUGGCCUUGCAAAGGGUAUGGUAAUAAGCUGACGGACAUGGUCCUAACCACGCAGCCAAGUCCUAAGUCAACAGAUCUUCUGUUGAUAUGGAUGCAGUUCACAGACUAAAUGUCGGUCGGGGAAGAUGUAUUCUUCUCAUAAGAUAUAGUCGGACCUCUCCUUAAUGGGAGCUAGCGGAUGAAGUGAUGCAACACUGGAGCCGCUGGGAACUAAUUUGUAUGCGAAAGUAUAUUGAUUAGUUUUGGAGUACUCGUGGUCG;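 further: selection with 25 µg/mL kanamycin versus none on LB agar overnight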
Conditions: 30 °C
measured property: self-splicing fitness (ln)
# print the numeric value only

UCCUAGCAAUAUUACGAUUU | -2.16
UGAAAGCAAUAUUACGGUUG | -1.29
GUUUAGCAAUAUUACGUUCC | -0.783
UUAGAGCAAUAUUACGACAG | -0.55

Value lookup for self-splicing fitness (ln); key = AAAUAGCAAUAUUACGGAUU
-0.612

Value lookup for self-splicing fitness (ln); key = CUCCAGCAAUAUUACGGCAA
-3.55

Value lookup for self-splicing fitness (ln); key = ACGUAGCAAUAUUACGCAUU
-2.8

Value lookup for self-splicing fitness (ln); key = ACUGAGCAAUAUUACGAUCA
-2.89

Value lookup for self-splicing fitness (ln); key = UCCAAGCAAUAUUACGAACU
-2.6

Value lookup for self-splicing fitness (ln); key = GACAAGCAAUAUUACGACUC
0.206

Value lookup for self-splicing fitness (ln); key = ACUGAGCAAUAUUACGAUCU
-1.28

Value lookup for self-splicing fitness (ln); key = GAGCAGCAAUAUUACGUAAG
-2.59

Value lookup for self-splicing fitness (ln); key = UGCCAGCAAUAUUACGUCUA
-0.347

Value lookup for self-splicing fitness (ln); key = AAAGAGCAAUAUUACGUGGU
-4.52

Value lookup for self-splicing fitness (ln); key = CAUUAGCAAUAUUACGCCUU
-3.03

Value lookup for self-splicing fitness (ln); key = GAAUAGCAAUAUUACGACGC
0.293
